# Study system: Cytochrome P450 3A4 (Homo sapiens, UniProt P08684)
# Sequence (P08684 whole entry): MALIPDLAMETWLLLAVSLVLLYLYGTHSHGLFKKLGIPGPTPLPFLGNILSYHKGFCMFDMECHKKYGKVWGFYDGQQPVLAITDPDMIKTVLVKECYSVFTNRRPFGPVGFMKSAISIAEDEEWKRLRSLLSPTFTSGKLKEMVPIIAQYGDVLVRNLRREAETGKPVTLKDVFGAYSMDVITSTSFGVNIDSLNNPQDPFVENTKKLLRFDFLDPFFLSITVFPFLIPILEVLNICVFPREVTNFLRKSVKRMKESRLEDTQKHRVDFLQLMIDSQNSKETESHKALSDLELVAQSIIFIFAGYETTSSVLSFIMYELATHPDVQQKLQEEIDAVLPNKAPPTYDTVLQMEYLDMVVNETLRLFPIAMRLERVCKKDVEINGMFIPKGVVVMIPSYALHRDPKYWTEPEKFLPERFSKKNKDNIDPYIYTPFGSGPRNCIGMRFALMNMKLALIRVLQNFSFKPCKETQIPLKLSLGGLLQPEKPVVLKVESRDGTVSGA
# Method description: Inhibition of CYP3A4 using phenyl-piperazinyl-methyl-benzyl-resofurin substrate
# Format: ADME
Definition: the class of an entry is the range in c1: < 2 µM; c2: ≥ 2 µM and < 9 µM; c3: ≥ 9 µM that contains its IC50.

Record excerpt, results attached:
C[C@@H]1CN(Cc2ccc(-c3ccccc3C(=O)N3CCC(Cc4ccc(F)cc4)CC3)cc2)C[C@H](C)N1: c1
C[C@@H]1CN(Cc2ccc(-c3ccccc3CN(C)C(=O)COc3ccc(F)cc3)cc2)C[C@H](C)N1: c2
C[C@@H]1CN(Cc2ccc(-c3ccccc3C(=O)N3CCC(Nc4ccc(Cl)cc4)CC3)cc2)C[C@H](C)N1: c2
C[C@@H]1CN(Cc2ccc(-c3ccccc3C(=O)N3CCC(Nc4ccccc4)CC3)cc2)C[C@H](C)N1: c3
C[C@@H]1CN(Cc2ccc(-c3ccccc3CN(C)C(=O)Cc3cccc(Cl)c3)cc2)C[C@H](C)N1: c1

Turning now to a further compound:
Which class is correct for the following compound? Cc1cc(CC(=O)N(C)Cc2ccccc2-c2ccc(CN3C[C@@H](C)N[C@@H](C)C3)cc2)on1
c3
